This section lists log10(IC50) readings for NAD-dependent protein deacetylase sirtuin-1 (Homo sapiens, UniProt Q96EB6).
Transform log10 | Measure IC50 | Unit nM

Check out these entries, answers already filled in.
Test item CC(=O)NCCCC[C@H](NC(=O)[C@H](C)NC(C)=O)C(=O)N[C@@H](C)C(=O)O ; NAD-dependent protein deacetylase sirtuin-1 (Homo sapiens, UniProt Q96EB6); reported log10(IC50) was 5.09

Note to self: log10(IC50) of CC(=[Se])NCCCC[C@H](NC(=O)OCc1ccccc1)C(=O)Nc1ccccc1 with NAD-dependent protein deacetylase sirtuin-1 (Homo sapiens, UniProt Q96EB6) was 3.26

Record for CC(=O)N[C@@H](C)C(=O)N[C@@H](CCCCNC(C)=[Se])C(=O)N[C@@H](C)C(=O)O under target or system NAD-dependent protein deacetylase sirtuin-1 (Homo sapiens, UniProt Q96EB6): log10(IC50) reported as 2.57

The value of log10(IC50) recorded for CC(=O)N[C@@H](C)C(=O)N[C@@H](CCCCNC(C)=S)C(=O)N[C@@H](C)C(=O)O when tested on NAD-dependent protein deacetylase sirtuin-1 (Homo sapiens, UniProt Q96EB6) reads 2.38

Next:
// log10(IC50) (NAD-dependent protein deacetylase sirtuin-1 (Homo sapiens, UniProt Q96EB6)) for CC(=O)N[C@@H](C)C(=O)N[C@@H](CCCCNC(=S)CC(C)C)C(=O)N[C@@H](C)C(=O)O = 2.85

Item: COC(=O)[C@H](C)NC(=O)[C@H](CCCCNC(C)=O)NC(=O)[C@H](C)NC(C)=O | System: NAD-dependent protein deacetylase sirtuin-1 (Homo sapiens, UniProt Q96EB6) | log10(IC50): 5.43

// assay NAD-dependent protein deacetylase sirtuin-1 (Homo sapiens, UniProt Q96EB6), entry CC(=O)N[C@@H](C)C(=O)N[C@@H](CCCCNC(=O)C=C(C)C)C(=O)N[C@@H](C)C(=O)O , log10(IC50) value = 4.04

---

biological target: NAD-dependent protein deacetylase sirtuin-2 (Homo sapiens); assay: Inhibition of GST-SIRT2 at 200 uM after 1 hr by Fluor de Lys fluorescence assay
measurement_name: inhibition (%)
Expressed in %, but write only the number.

# inhibition of COC(=O)[C@H](C)NC(=O)[C@H](CCCCNC(=O)C(C)(C)C)NC(=O)[C@H](C)NC(C)=O = 52

Lab book: inhibition of COC(=O)[C@H](C)NC(=O)[C@H](CCCCNS(=O)(=O)C(F)(F)F)NC(=O)[C@H](C)NC(C)=O noted as 4

# inhibition (compound: COC(=O)[C@H](C)NC(=O)[C@H](CCCCNS(C)(=O)=O)NC(=O)[C@H](C)NC(C)=O ) is 8

Recorded result, CC(=O)N[C@@H](C)C(=O)N[C@@H](CCCCNC(=O)CC(C)C)C(=O)N[C@@H](C)C(=O)O , inhibition: 76

Note to self: inhibition recorded for CC(=O)N[C@@H](C)C(=O)N[C@@H](CCCCNC(C)=[Se])C(=O)N[C@@H](C)C(=O)O was 97

Continuing:
// recorded inhibition for CC(=O)N[C@@H](C)C(=O)N[C@@H](CCCCNC(=S)CC(C)C)C(=O)N[C@@H](C)C(=O)O : 99

Briefly, inhibition measured for CC(=O)N[C@@H](C)C(=O)N[C@@H](CCCCNC(C)=S)C(=O)N[C@@H](C)C(=O)O : 96

Notebook: CC(=O)NCCCC[C@H](NC(=O)[C@H](C)NC(C)=O)C(=O)N[C@@H](C)C(=O)O , inhibition read as 42

Just so you know, measured inhibition for CNC(=O)[C@H](C)NC(=O)[C@H](CCCCNC(C)=O)NC(=O)[C@H](C)NC(C)=O came out at 68

// CNC(=O)[C@H](C)NC(=O)[C@H](CCCCNC(=O)c1cccn1C)NC(=O)[C@H](C)NC(C)=O : inhibition value = 41

COC(=O)[C@H](C)NC(=O)[C@H](CCCCNC(=O)c1ccccn1)NC(=O)[C@H](C)NC(C)=O has a reported inhibition of 0

Note to self: inhibition recorded for COC(=O)[C@H](C)NC(=O)[C@H](CCCCNC(=O)OCc1ccccc1)NC(=O)[C@H](C)NC(C)=O was 3
